Where do the numbers come from? From patent US10689339B2.

target: human Cat S (Homo sapiens (Human))
Sequence (P25774 115-331): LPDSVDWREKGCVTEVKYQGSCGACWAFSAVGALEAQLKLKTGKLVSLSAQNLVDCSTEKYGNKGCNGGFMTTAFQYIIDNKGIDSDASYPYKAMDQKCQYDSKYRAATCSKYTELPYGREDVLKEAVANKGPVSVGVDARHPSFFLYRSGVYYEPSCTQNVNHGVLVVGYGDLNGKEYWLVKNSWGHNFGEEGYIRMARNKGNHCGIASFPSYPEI
pIC50: −log10 of the molar value.
endpoint.label: pIC50

These solved cases illustrate the format of a correct answer.
Cc1nc(C)n(-c2ccc(S(=O)(=O)[C@@H]3C[C@@H](C(=O)NC4(C#N)CC4)N(C(=O)C4(C(F)(F)F)CC4)C3)c(C(F)(F)F)c2)n1 [Example 27] : 9.25
N#CC1(NC(=O)[C@@H]2C[C@@H](S(=O)(=O)c3ccc(-c4ccc5c(c4)OC(F)(F)O5)cc3C(F)(F)F)CN2C(=O)C2(C(F)(F)F)CC2)CC1 [Example 45] : 8.97

I: N#CC1(NC(=O)[C@@H]2C[C@@H](S(=O)(=O)c3ccc(-n4ccc(C(F)(F)F)n4)cc3Cl)CN2C(=O)C2(C(F)(F)F)CC2)CC1 [Example 17]
II: Cc1cc(-n2cnc(Cl)n2)ccc1S(=O)(=O)[C@@H]1C[C@H](C(=O)NC2(C#N)CC2)N(C(=O)C2(C(F)(F)F)CC2)C1 [Example 67]
III: CCOc1ccccc1-c1ccc(S(=O)(=O)[C@@H]2C[C@@H](C(=O)NC3(C#N)CC3)N(C(=O)C3(C(F)(F)F)CC3)C2)cc1 [Example 38]
// query // sort entries: pIC50, high to low Would you mind listing the labels in the order asked for?
// result I, III, II
(I: 9.15, III: 8.49, II: 6.27)
